Tested on: cynomolgus monkey CD98 ECD
Sequence (as listed by the source): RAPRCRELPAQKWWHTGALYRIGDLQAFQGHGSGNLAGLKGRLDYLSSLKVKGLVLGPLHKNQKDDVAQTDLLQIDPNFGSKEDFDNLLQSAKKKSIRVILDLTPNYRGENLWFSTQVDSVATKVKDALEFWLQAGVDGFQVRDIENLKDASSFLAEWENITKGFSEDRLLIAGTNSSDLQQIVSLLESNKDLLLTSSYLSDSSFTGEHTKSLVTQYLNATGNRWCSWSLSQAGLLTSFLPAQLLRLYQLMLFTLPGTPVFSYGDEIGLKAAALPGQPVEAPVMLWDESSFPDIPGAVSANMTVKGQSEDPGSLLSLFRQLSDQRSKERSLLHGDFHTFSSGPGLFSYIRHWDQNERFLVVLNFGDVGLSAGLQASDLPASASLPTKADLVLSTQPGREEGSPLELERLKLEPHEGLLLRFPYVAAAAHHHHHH
Assay: Biacore surface plasmon resonance binding kinetics (anti-Fc capture)
Details: cyCD98 ECD
measured_quantity: ka (M⁻¹ s⁻¹)

1) huAb101: "heavy chain variable sequence of huAb101 is provided in SEQ ID NO: 106"; "light chain variable sequence ... in SEQ ID NO: 107" (antibody, V domains shown) VH: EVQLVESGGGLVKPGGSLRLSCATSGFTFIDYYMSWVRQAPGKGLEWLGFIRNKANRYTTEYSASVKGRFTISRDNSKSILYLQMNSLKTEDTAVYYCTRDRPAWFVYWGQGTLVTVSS VL: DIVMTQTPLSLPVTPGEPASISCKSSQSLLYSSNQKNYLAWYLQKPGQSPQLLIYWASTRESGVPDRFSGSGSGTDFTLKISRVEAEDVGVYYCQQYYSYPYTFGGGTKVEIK :: 30000
